Cited source for all entries: PubChem BioAssay AID434970

System: intestinal alkaline phosphatase [Mus musculus]
Experiment: mouse intestinal phosphatase enzyme activation – biochemical, luminescence, single concentration, confirmation (AID 434970)
Conditions: purified mouse IAP, CDP-Star luminescence, 30 min, at 10 µM; stronger effect = lower value
The campaign covered roughly 11,000 compounds. About 310 (2.8%) were called active. The list comes from a sample in which actives are over-represented; it also holds close analogues and randomly drawn compounds.
A collection of compounds and their measured activity change, negative = activation
Give the number; % is assumed, so skip it.

Worked set:
1. C#CCOCCOCCOCCNc1nc(N2CCN(C(=O)[C@H](Cc3cc4ccccc4[nH]3)n3cc([C@@H](N)C(C)CC)nn3)CC2)nc(N2CCN(C(=O)[C@H](Cc3cc4ccccc4[nH]3)n3cc([C@@H](N)Cc4ccc(O)cc4)nn3)CC2)n1 (stereo partly drawn) :: -42.8
2. CN(Cc1ccccc1)C(=O)Cn1cccc1C(=O)c1ccccc1 :: -13.4

Form field, activity change, negative = activation with intestinal alkaline phosphatase [Mus musculus], item CC[C@H](C)[C@@H](C(=O)NCCCCCCCCCCC(=O)N1CCN(C(=O)OC(C)(C)C)CC1)n1cc(CCCCCNC(=O)OC(C)(C)C)nn1 : -51.8

* * *

System: intestinal alkaline phosphatase [Mus musculus]
Test: mouse intestinal phosphatase enzyme activation – biochemical, luminescence, single concentration, confirmation (AID 434970)
Details: purified mouse IAP, CDP-Star luminescence, 30 min, at 10 µM; measured here: IAP activation factor, stronger effect = higher value
Out of some 11,000 compounds screened, about 310 (2.8%) were called active. The sample holds actives, similar compounds and a random draw of the others, so the mix is not that of the screen.
measuredQuantity: activation factor
Could you keep your reply to the number by itself?

1) Fc1ccccc1CNC(=S)Nc1ccc(Cl)cc1 :: 1.38
2) Cc1ccc(NC(=S)NCCSc2ccc(Cl)cc2)cc1 :: 1.45
3) S=C(NCCC(c1ccccc1)c1ccccc1)Nc1ccc(Cl)cc1 :: 2.1
4) CC(=O)N1c2ccccc2C(C)(c2ccccc2)CC1(C)C (stereo unspecified) :: 0.98
5) COc1cccc(N/C(C)=C/C(=O)c2ccc(Br)cc2)c1 :: 1

The measured activation factor associated with S=C(NCCN(C1CCCCC1)C1CCCC1)Nc1cccc(Cl)c1 reads 1.69

The measured activation factor associated with S=C(NCCC(c1ccccc1)c1ccccc1)Nc1cccc(Cl)c1 reads 3.74

The measured activation factor associated with S=C(NCc1ccccc1)Nc1cccc(Cl)c1 reads 1.4

The measured activation factor associated with Cc1ccc(C)c(N2CCN(C(=O)CCc3nc(-c4ccc(Br)cc4)no3)CC2)c1 reads 1.04

The measured activation factor associated with CC[C@]1(C(=O)OC)[C@H]2C(=O)N(C)C(=O)[C@H]2[C@H]2CN=C(SCc3ccc(C#N)cc3)N21 reads 1.07

The measured activation factor associated with CCCCNS(=O)(=O)CCNCCc1ccccc1 reads 1.1

* * *

Test system: intestinal alkaline phosphatase [Mus musculus]
Assay: mouse intestinal phosphatase enzyme activation – biochemical, luminescence, single concentration, confirmation (AID 434970)
Conditions: purified mouse IAP, CDP-Star luminescence, 30 min, at 10 µM
Hit rate of the full screen: of about 11,000 compounds, about 310 (2.8%) were called active. Rule as the data show it: active = activity change below about -85%; inactive = the rest. The list comes from a sample in which actives are over-represented; it also holds close analogues and randomly drawn compounds.
The reply should name one outcome from active, inactive

Per the assay record, what outcome was assigned to COc1ccc(NC(=O)Nc2ccc3c(c2)C(=O)N([C@H](C)CO)C[C@H](C)[C@@H](CN(C)C(=O)Nc2ccc(OC)cc2)O3)cc1 ?
inactive

Per the assay record, what outcome was assigned to CSc1ccc(CN2CCC(n3nccc3NC(=O)CCCc3ccccc3)CC2)cc1 ?
active

Per the assay record, what outcome was assigned to CNC[C@@H]1Oc2ccc(NC(=O)Nc3cccc4ccccc34)cc2C(=O)N([C@@H](C)CO)C[C@@H]1C ?
active

* * *

System: intestinal alkaline phosphatase [Mus musculus]
Assay: mouse intestinal phosphatase enzyme activation – biochemical, luminescence, single concentration, confirmation (AID 434970)
Conditions: purified mouse IAP, CDP-Star luminescence, 30 min, at 10 µM; measured here: IAP activation factor, stronger effect = higher value
In all, about 11,000 compounds went through this assay and about 310 (2.8%) were called active. The sample holds actives, similar compounds and a random draw of the others, so the mix is not that of the screen.
A collection of compounds and their measured activation factor

1) CCCNC(=O)c1csc2c1CCCCC2 :: 0.955

The measured activation factor associated with CCOC(=O)C1=C(C)N(C[C@@H]2CC[C@@H](Cc3ccc(-c4ccccc4)cc3)O2)C(=O)NC1c1ccc(C(F)(F)F)cc1 (some centres undefined) reads 0.924

The measured activation factor associated with Cc1cccc(NC(=O)NCCc2c[nH]c3ccccc23)c1 reads 1.72

The measured activation factor associated with O=C1c2cccc3c(N4CCCCC4)ccc(c23)C(=O)N1CCO reads 1.18

The measured activation factor associated with COc1cccc(NC(=O)NCCCCc2ccccc2)c1 reads 2.16

The measured activation factor associated with CC(C)CN(C(=O)COC(=O)Cn1cnc2ccccc2c1=O)C1CCS(=O)(=O)C1 (centres undefined) reads 0.927

* * *

System: intestinal alkaline phosphatase [Mus musculus]
Assay: mouse intestinal phosphatase enzyme activation – biochemical, luminescence, single concentration, confirmation (AID 434970)
Conditions: purified mouse IAP, CDP-Star luminescence, 30 min, at 10 µM; measured here: IAP activation factor, stronger effect = higher value
Screen size: about 11,000 compounds; about 310 (2.8%) were called active. This is one part of a sample in which actives are shown more often than they occur.
A collection of compounds and their measured activation factor
Could you keep your reply to the number by itself?

Worked set:
1) COc1ccc(C(=O)CSc2nnnn2Cc2ccccc2)cc1 :: 0.953
2) CCCC(=O)NC(=S)Nc1ccccc1C(F)(F)F :: 0.974
3) O=C(Nc1ccccc1N1CCN(c2ccccc2)CC1)C12CC3CC(CC(C3)C1)C2 :: 0.927
4) O=C(c1cc(NC(=O)C23CC4CC(CC(C4)C2)C3)cc(NC(=O)C23CC4CC(CC(C4)C2)C3)c1)N1CCCCC1 :: 2.06
5) O=C(Nc1cccc(-c2cccc(Cl)c2)c1)C1CCN(C2CCC2)CC1 :: 3.94
6) COc1ccc(OC)c(S(=O)(=O)N2CCC(C(=O)Nc3cccc(C(F)(F)F)c3)CC2)c1 :: 1.61
7) COC(=O)c1sccc1NC(=O)C12CC3CC(CC(C3)C1)C2 :: 1.03
8) CCCN1C(=O)c2ccc(C(=O)NC3CCCCC3)cc2C1=O :: 1.07
9) O=C(Nc1cccc(-c2cccc(F)c2)c1)C1CCN(C2CCC2)CC1 :: 2.55
10) N#Cc1c2c(c(NCCCN3CCOCC3)n3c1nc1ccccc13)CCC2 :: 0.904

With those in mind, consider the next compound.
The measured activation factor associated with COc1ccc(S(=O)(=O)c2ccc(O)cc2)cc1 reads 0.992

* * *

Test system: intestinal alkaline phosphatase [Mus musculus]
Assay: mouse intestinal phosphatase enzyme activation – biochemical, luminescence, single concentration, confirmation (AID 434970)
Details: purified mouse IAP, CDP-Star luminescence, 30 min, at 10 µM; measured here: IAP activation factor, stronger effect = higher value
Hit rate of the full screen: of about 11,000 compounds, about 310 (2.8%) were called active. What follows is part of a selection rich in actives, with near analogues and random picks from the rest.
measuredQuantity: activation factor
Could you keep your reply to the number by itself?

1) CN1CCN(C(=O)c2ccc3c(c2)OCCO3)CC1 :: 0.959
2) Cc1onc(-c2ccccc2)c1C(=O)Nc1ccnn1C1CCCCC1 :: 0.923
3) COCCCNC(=O)C[C@H]1C[C@H](C(=O)N2CCCCC2)[C@@]2(CCc3ccccc3)c3[nH]c4ccc(Cl)cc4c3CCN2C1=O :: 1.2
4) Cc1cc(OCC(=O)Nc2cccc(S(=O)(=O)N3CCCCC3)c2)ccc1Cl :: 1.81
5) CCOc1cccc(CN2CCC(n3nccc3NC(=O)CCCc3ccccc3)CC2)c1 :: 2.3

Form field, activation factor with intestinal alkaline phosphatase [Mus musculus], item C1=C[C@H]2CC[C@@H]1N(c1ccccc1)O2 : 0.976

Form field, activation factor with intestinal alkaline phosphatase [Mus musculus], item CCOC(=O)C1=CN(Cc2ccc(Br)cc2)S(=O)(=O)NC1C (stereo not given) : 0.968

Form field, activation factor with intestinal alkaline phosphatase [Mus musculus], item Cc1ccc(NC(=O)CN(C)C(=O)CCCN2C(=O)c3ccccc3C2=O)cc1 : 1.04

Form field, activation factor with intestinal alkaline phosphatase [Mus musculus], item CSCC[C@H](N)C(=O)NC[C@H]1O[C@@H](n2cnc3c(N)ncnc32)[C@H](O)[C@@H]1O : 0.994

Form field, activation factor with intestinal alkaline phosphatase [Mus musculus], item CCOC(=O)N1CCC(NC(=O)C2CCC(Cn3c(=O)[nH]c4ccccc4c3=O)CC2)CC1 (stereo not given) : 0.908
